Biological target: T1, cyno TfR ECD (cynomolgus)
T1 chain: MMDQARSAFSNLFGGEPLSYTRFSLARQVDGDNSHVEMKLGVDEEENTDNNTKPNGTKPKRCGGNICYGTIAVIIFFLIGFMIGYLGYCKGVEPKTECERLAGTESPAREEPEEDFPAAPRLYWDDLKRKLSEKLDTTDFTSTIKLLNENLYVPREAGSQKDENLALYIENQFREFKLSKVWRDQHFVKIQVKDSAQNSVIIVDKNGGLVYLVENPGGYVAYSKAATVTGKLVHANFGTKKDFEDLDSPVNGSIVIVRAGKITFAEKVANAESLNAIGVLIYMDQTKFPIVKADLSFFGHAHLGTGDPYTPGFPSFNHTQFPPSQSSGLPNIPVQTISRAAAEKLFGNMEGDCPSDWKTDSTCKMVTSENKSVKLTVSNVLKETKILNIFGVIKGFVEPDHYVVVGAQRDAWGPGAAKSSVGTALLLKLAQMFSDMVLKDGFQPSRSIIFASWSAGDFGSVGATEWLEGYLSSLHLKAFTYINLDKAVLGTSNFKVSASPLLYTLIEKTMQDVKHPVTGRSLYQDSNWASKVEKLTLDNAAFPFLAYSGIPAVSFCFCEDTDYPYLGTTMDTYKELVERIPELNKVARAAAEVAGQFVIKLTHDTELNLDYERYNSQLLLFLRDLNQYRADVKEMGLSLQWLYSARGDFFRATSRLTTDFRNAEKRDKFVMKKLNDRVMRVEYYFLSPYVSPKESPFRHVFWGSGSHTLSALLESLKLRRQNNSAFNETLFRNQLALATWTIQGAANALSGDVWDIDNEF
Assay: ELISA
MEASURED ENDPOINT: EC50 (ng/mL)
Hi! Could you send only the number? It should be in ng/mL, unit omitted.

hu15G11.v5 LC L54A (antibody, V domains shown) VH: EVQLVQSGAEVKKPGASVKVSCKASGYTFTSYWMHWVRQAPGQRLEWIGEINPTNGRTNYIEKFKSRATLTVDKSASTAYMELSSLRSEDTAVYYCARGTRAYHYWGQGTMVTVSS VL: DIQMTQSPSSLSASVGDRVTITCRASDNLYSNLAWYQQKPGKSPKLLVYDATNAADGVPSRFSGSGSGTDYTLTISSLQPEDFATYYCQHFWGTPLTFGQGTKVEIK : 0.5
hu15G11.v5 LC N32A (antibody, V domains shown) VH: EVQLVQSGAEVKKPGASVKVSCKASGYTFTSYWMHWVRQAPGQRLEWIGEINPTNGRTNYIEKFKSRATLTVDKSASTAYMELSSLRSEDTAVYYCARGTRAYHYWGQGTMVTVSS VL: DIQMTQSPSSLSASVGDRVTITCRASDNLYSALAWYQQKPGKSPKLLVYDATNLADGVPSRFSGSGSGTDYTLTISSLQPEDFATYYCQHFWGTPLTFGQGTKVEIK : 4

Then there is this binder:
Task: # lookup: EC50 of hu15G11.v5 HC G49A (antibody, V domains shown) VH: EVQLVQSGAEVKKPGASVKVSCKASGYTFTSYWMHWVRQAPGQRLEWIAEINPTNGRTNYIEKFKSRATLTVDKSASTAYMELSSLRSEDTAVYYCARGTRAYHYWGQGTMVTVSS VL: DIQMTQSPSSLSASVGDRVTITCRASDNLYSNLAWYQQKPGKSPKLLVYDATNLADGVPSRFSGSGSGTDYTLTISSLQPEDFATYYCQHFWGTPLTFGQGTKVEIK
Result: 1.1
